Cited source: PubChem BioAssay

- measured.target: NADPH oxidase 5 (Homo sapiens) (UniProt Q96PH1)
- Sequence (Q96PH1 whole entry, looked up): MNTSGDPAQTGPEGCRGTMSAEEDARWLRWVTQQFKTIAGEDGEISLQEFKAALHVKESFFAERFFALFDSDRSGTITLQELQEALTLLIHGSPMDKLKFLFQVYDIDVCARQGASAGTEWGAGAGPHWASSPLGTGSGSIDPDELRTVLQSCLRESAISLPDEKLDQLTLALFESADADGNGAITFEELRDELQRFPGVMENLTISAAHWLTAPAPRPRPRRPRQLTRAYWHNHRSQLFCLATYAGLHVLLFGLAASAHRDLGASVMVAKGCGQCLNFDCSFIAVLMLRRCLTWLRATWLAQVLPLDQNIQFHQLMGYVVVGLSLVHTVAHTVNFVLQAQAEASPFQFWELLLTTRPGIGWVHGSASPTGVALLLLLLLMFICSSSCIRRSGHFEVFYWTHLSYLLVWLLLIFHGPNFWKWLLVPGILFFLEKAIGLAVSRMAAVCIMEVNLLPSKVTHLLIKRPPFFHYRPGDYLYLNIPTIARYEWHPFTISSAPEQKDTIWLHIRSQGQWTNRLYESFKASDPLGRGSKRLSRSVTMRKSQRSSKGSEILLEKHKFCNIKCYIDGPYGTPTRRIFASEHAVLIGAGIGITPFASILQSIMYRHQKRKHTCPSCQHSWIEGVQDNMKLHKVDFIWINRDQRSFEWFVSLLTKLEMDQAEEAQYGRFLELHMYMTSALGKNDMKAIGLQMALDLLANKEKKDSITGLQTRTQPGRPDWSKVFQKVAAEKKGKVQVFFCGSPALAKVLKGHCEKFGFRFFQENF
- method.notes: compounds shifting NOX5 Amplex Red fluorescence – cell-based, HEK293-NOX5, NOX inhibitor project, primary screen (AID 1161)
- condition.label: HEK293-NOX5, ionomycin, 45 min, higher = more signal
readout.kind: z-score
Give the value as a plain number.

`COCCCNC(=O)[C@@]1(C)c2ccccc2C(=O)N(c2ccc(C)cn2)[C@H]1c1ccc(CO)cc1` yielded z-score of -1.7

`CCCC[C@H]1OB(O)C[C@H]2C1=C(COc1ccccc1)Cn1c(=O)n(-c3ccccc3)c(=O)n12` yielded z-score of 0.779

`NCCCCCCNC(=O)[C@H]1C[C@H]2C(=O)N3CCC[C@H]3C(=O)N2[C@H]1c1ccc(O)cc1` yielded z-score of 0.386

`COC(=O)[C@@]1(Cc2ccccc2N=[N+]=[N-])N=C(c2ccc(OCCCO)cc2)O[C@H]1c1ccccc1` yielded z-score of -1.76

`COC(=O)[C@@]1(Cc2ccc(F)cc2)[C@H]2c3cc(C(=O)N(C)C)n(CCSCCO)c3C[C@H]2CN1C(=O)c1ccccc1` yielded z-score of -0.572

`[N-]=[N+]=NCc1ccccc1C[C@]1(C(=O)NCCN2CCOCC2)COC(c2ccc(OCCCO)cc2)=N1` yielded z-score of 0.109

`CC(=O)NCCCC[C@@H]1NC(=O)[C@H]2C[C@@H](C(=O)NCCCCCN)[C@@H](c3cccc(OCCO)c3)N2C1=O` yielded z-score of 0.875

`O=C(O)[C@@]1(Cc2ccccc2)COC(c2ccc(OCCCO)cc2)=N1` yielded z-score of 0.237

Cc1cc(C)c(C(O)C2C=CC3C(=O)N(c4ccccc4)C(=O)C3N2Nc2ccc([N+](=O)[O-])cc2)c(C)c1 (stereo not given) yielded z-score of -1.63

CC(C)CCC[C@@H](C)[C@H]1CC[C@@]2(C)C3=C(CC[C@]12C)[C@@]1(C)CC[C@H](OC(=O)c2ccc(N)cc2)C(C)(C)C1CC3 (stereo not given in full) yielded z-score of 0.807

`COc1ccc([Si](C)(C)[C@@H]2[C@@H](CCO)O[C@]3(C(=O)N(Cc4ccccc4)c4ccc(N5CCCCC5=O)cc43)[C@H]2C)cc1` yielded z-score of 1.37

`CC(C)NC(=O)[C@@H]1c2ccccc2C(=O)N(Cc2cc(C(F)(F)F)cc(C(F)(F)F)c2)[C@H]1c1ccc(CO)cc1` yielded z-score of -0.284

`COCCCNC(=O)[C@@H]1c2ccccc2C(=O)N(Cc2cc(F)cc(C(F)(F)F)c2)[C@H]1c1ccc(CO)cc1` yielded z-score of 0.774

`COCCOC(=O)N1C(=O)[C@@]2(c3cc(C#CC4(O)CCCCCC4)ccc31)[C@H](C(=O)N1CCN(c3ncccn3)CC1)[C@H]1C(=O)O[C@H](c3ccccc3)[C@H](c3ccccc3)N1[C@@H]2c1ccc(O)cc1` yielded z-score of 1.49

`O=C1c2ccccc2[C@](Cc2ccccc2I)(C(=O)NCC(F)(F)F)[C@H](c2ccc(CO)cc2)N1Cc1ccccc1` yielded z-score of 1.14
